biological target: Aldo-keto reductase family 1 member C3 (Homo sapiens); experiment: Inhibition of human 17beta-HSD5 expressed in HEK293 cells assessed as enzyme-mediated transformation of [14C]-4-androstene-3,17-dione in to [14C]-testosterone at 0.3 uM after 18 hrs; type: cell-based
The threshold is inclusive: inhibition of exactly 20% counts as yes (1); values below receive no (0).

inhibition >= 20% for CC1(C)CC[C@@]2(CC[C@H]3[C@@H]4CCc5cc(O)ccc5[C@H]4CC[C@@]32C)OC1=O ?
yes (1)

inhibition >= 20% for C[C@]12CCC(=O)C=C1CC[C@@H]1[C@@H]2CC[C@@]2(C)[C@H]1CC[C@@]21CCC(=O)O1 ?
no (0)

inhibition >= 20% for COC(=O)C1CC[C@@]2(CC[C@H]3[C@@H]4CCc5cc(O)ccc5[C@H]4CC[C@@]32C)OC1=O (mixture of isomers) ?
yes (1)

inhibition >= 20% for COC1CC[C@@]2(CC[C@H]3[C@@H]4CCc5cc(O)ccc5[C@H]4CC[C@@]32C)O1 (stereo in doubt; 8) ?
no (0)

inhibition >= 20% for C[C@]12CCC3(CCC(=O)O3)CC1CC[C@@H]1[C@@H]2CC[C@@]2(C)[C@H]1CC[C@@]21CCC(=O)O1 (stereo partly specified) ?
no (0)

inhibition >= 20% for COC1CC[C@@]2(CC[C@H]3[C@@H]4CCc5cc(O)ccc5[C@H]4CC[C@@]32C)O1 (stereo in doubt; 7) ?
no (0)

inhibition >= 20% for CC1(C)CC[C@@]2(CC[C@H]3[C@@H]4CCc5ccccc5[C@H]4CC[C@@]32C)OC1=O ?
yes (1)

inhibition >= 20% for C=CCC1CC[C@@]2(CC[C@H]3[C@@H]4CCc5cc(O)ccc5[C@H]4CC[C@@]32C)OC1=O (mixture of isomers) ?
yes (1)

inhibition >= 20% for C[C@]12CC[C@@H]3c4ccc(O)cc4CC[C@H]3[C@@H]1C[C@@H]1CCC(=O)O[C@@H]12 ?
yes (1)

inhibition >= 20% for CC1CC[C@@]2(CC[C@H]3[C@@H]4CCc5ccccc5[C@H]4CC[C@@]32C)OC1=O (stereo partly specified) ?
yes (1)

inhibition >= 20% for C[C@]12CC[C@@H]3c4ccc(O)cc4CC[C@H]3[C@@H]1C[C@@H]1CC(=O)O[C@@H]12 ?
yes (1)

###

Biological target: Aldo-keto reductase family 1 member C3 (Homo sapiens, UniProt P42330)
Sequence (P42330 whole entry): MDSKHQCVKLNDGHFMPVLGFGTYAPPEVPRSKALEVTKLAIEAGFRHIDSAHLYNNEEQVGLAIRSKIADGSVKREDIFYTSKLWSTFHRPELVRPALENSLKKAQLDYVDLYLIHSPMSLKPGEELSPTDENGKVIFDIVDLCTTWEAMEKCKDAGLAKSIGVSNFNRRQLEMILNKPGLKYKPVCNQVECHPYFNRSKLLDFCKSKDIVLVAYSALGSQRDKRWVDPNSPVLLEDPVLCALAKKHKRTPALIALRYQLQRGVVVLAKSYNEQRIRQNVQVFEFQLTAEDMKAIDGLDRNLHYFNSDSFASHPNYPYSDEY
Experiment: Inhibition of human 17beta-HSD5 expressed in HEK293 cells assessed as enzyme-mediated transformation of [14C]-4-androstene-3,17-dione in to [14C]-testosterone after 18 hrs
Assay type: cell-based
metric: IC50
Answer with the figure and its unit, nothing else.

Entry CC1(C)CC[C@@]2(CC[C@H]3[C@@H]4CCc5ccccc5[C@H]4CC[C@@]32C)OC1=O needs its IC50 filled in; supply it.
2.9 nM

Entry CC1CC(=O)O[C@]2(CC[C@H]3[C@@H]4CCc5cc(O)ccc5[C@H]4CC[C@@]32C)C1 (mixture of isomers) needs its IC50 filled in; supply it.
19 nM

Entry C[C@]12CC[C@@H]3c4ccc(O)cc4CC[C@H]3[C@@H]1CC[C@@]21CCCC(=O)O1 needs its IC50 filled in; supply it.
20 nM

Entry CC1CC[C@@]2(CC[C@H]3[C@@H]4CCc5ccccc5[C@H]4CC[C@@]32C)OC1=O (stereo not given in full) needs its IC50 filled in; supply it.
6.1 nM

Entry C=CCC1CC[C@@]2(CC[C@H]3[C@@H]4CCc5cc(O)ccc5[C@H]4CC[C@@]32C)OC1=O (mixture of isomers) needs its IC50 filled in; supply it.
107 nM

###

biological target: 17-beta-hydroxysteroid dehydrogenase type 3 (Homo sapiens); experiment: Inhibition of human 17beta-HSD3 expressed in HEK293 cells assessed as enzyme-mediated transformation of [14C]-4-androstene-3,17-dione in to [14C]-testosterone at 1 uM; assay type: cell-based
metric: inhibition (%)
Lab book: enter the figure in %, no units written.

Entry C[C@]12CC[C@@H]3c4ccc(O)cc4CC[C@H]3[C@@H]1CC[C@@]21CCCC(=O)O1 needs its inhibition filled in; supply it.
34

Entry C[C@]12CC[C@@H]3c4ccccc4CC[C@H]3[C@@H]1CC[C@@]21CCCC(=O)O1 needs its inhibition filled in; supply it.
64

Entry CC1CC[C@@]2(CC[C@H]3[C@@H]4CCc5ccccc5[C@H]4CC[C@@]32C)OC1=O (some centres undefined) needs its inhibition filled in; supply it.
64

Entry CC1(C)CC[C@@]2(CC[C@H]3[C@@H]4CCc5ccccc5[C@H]4CC[C@@]32C)OC1=O needs its inhibition filled in; supply it.
64

###

Biological target: Aldo-keto reductase family 1 member C3 (Homo sapiens)
Sequence (P42330 whole entry): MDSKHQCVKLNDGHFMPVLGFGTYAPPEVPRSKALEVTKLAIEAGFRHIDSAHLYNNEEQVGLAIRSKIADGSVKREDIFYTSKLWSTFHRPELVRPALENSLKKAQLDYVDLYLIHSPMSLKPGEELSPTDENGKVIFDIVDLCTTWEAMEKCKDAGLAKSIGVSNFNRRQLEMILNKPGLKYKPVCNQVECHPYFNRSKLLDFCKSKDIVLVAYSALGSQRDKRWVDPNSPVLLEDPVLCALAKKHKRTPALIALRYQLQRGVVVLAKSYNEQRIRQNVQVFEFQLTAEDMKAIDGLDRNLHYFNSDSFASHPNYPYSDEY
Assay: Inhibition of human 17beta-HSD5 expressed in HEK293 cells assessed as enzyme-mediated transformation of [14C]-4-androstene-3,17-dione in to [14C]-testosterone after 18 hrs
Label T when IC50 < 50 nM; otherwise F.

Is 50 nM strictly greater than the compound's reported IC50? compound: C[C@]12CC[C@@H]3c4ccccc4CC[C@H]3[C@@H]1CC[C@@]21CCCC(=O)O1
T

Is 50 nM strictly greater than the compound's reported IC50? compound: CC1CC[C@@]2(CC[C@H]3[C@@H]4CCc5cc(O)ccc5[C@H]4CC[C@@]32C)OC1=O (mixture of isomers)
T

Is 50 nM strictly greater than the compound's reported IC50? compound: CC1(C)CC[C@@]2(CC[C@H]3[C@@H]4CCc5cc(O)ccc5[C@H]4CC[C@@]32C)OC1=O
T

Is 50 nM strictly greater than the compound's reported IC50? compound: COC(=O)C1CC[C@@]2(CC[C@H]3[C@@H]4CCc5cc(O)ccc5[C@H]4CC[C@@]32C)OC1=O (mixture of isomers)
F

Is 50 nM strictly greater than the compound's reported IC50? compound: C[C@]12CC[C@@H]3c4ccc(O)cc4CC[C@H]3[C@@H]1C[C@@H]1CCCC(=O)O[C@@H]12
F

Is 50 nM strictly greater than the compound's reported IC50? compound: C[C@]12CC[C@@H]3c4ccc(O)cc4CC[C@H]3[C@@H]1CC[C@@]21CCCCC(=O)O1
T

###

target: Aldo-keto reductase family 1 member C3 (Homo sapiens) (UniProt P42330); experiment: Inhibition of human 17beta-HSD5 expressed in HEK293 cells assessed as enzyme-mediated transformation of [14C]-4-androstene-3,17-dione in to [14C]-testosterone at 3 uM after 18 hrs; assay type: cell-based
metric: inhibition (%)
Lab book: enter the figure in %, no units written.

Entry CC1CC[C@@]2(CC[C@H]3[C@@H]4CCc5ccccc5[C@H]4CC[C@@]32C)OC1=O (some centres not stated) needs its inhibition filled in; supply it.
94

Entry C[C@]12CCC(=O)C=C1CC[C@@H]1[C@@H]2CC[C@@]2(C)[C@H]1CC[C@@]21CCC(=O)O1 needs its inhibition filled in; supply it.
61

Entry C[C@]12CC[C@@H]3c4ccc(O)cc4CC[C@H]3[C@@H]1CC[C@@]21CCC(O)O1 (mixture of isomers) needs its inhibition filled in; supply it.
61

Entry C[C@]12CC[C@@H]3c4ccc(O)cc4CC[C@H]3[C@@H]1CC[C@@]21CCCCC(=O)O1 needs its inhibition filled in; supply it.
93

Entry C[C@]12CC[C@@H]3c4ccc(O)cc4CC[C@H]3[C@@H]1CC[C@@]21CCCC(=O)O1 needs its inhibition filled in; supply it.
95

Entry C[C@]12CC[C@@H]3c4ccc(O)cc4CC[C@H]3[C@@H]1CC[C@@]21CCC(=O)O1 needs its inhibition filled in; supply it.
79

Entry COC1CC[C@@]2(CC[C@H]3[C@@H]4CCc5cc(O)ccc5[C@H]4CC[C@@]32C)O1 (stereo in doubt; 7) needs its inhibition filled in; supply it.
4

Entry C[C@]12CCC(=O)CC1C(=O)C[C@@H]1[C@@H]2CC[C@@]2(C)[C@H]1CC[C@@]21CCC(=O)O1 (some centres not stated) needs its inhibition filled in; supply it.
45

Entry C[C@]12CC[C@@H]3c4ccc(O)cc4CC[C@H]3[C@@H]1CC[C@@]21CC=CC(=O)O1 needs its inhibition filled in; supply it.
92

Entry C[C@]12CC[C@@H]3c4ccc(O)cc4CC[C@H]3[C@@H]1C[C@@H]1CCCC(=O)O[C@@H]12 needs its inhibition filled in; supply it.
91

Entry C[C@]12CC[C@@H]3c4ccc(O)cc4CC[C@H]3[C@@H]1C[C@H]1CCC(=O)O[C@H]12 needs its inhibition filled in; supply it.
52

Entry CC1CC[C@@]2(CC[C@H]3[C@@H]4CCc5cc(O)ccc5[C@H]4CC[C@@]32C)OC1=O (mixture of isomers) needs its inhibition filled in; supply it.
94

Entry C[C@]12CC[C@@H]3c4ccccc4CC[C@H]3[C@@H]1CC[C@@]21CCCC(=O)O1 needs its inhibition filled in; supply it.
95

Entry COC1CC[C@@]2(CC[C@H]3[C@@H]4CCc5cc(O)ccc5[C@H]4CC[C@@]32C)O1 (stereo in doubt; 8) needs its inhibition filled in; supply it.
16

Entry C[C@]12CC[C@@H]3c4ccc(O)cc4CC[C@H]3[C@@H]1C[C@@H]1CCC(=O)O[C@@H]12 needs its inhibition filled in; supply it.
85

Entry COC(=O)C1CC[C@@]2(CC[C@H]3[C@@H]4CCc5cc(O)ccc5[C@H]4CC[C@@]32C)OC1=O (mixture of isomers) needs its inhibition filled in; supply it.
92

Entry C=CCC1CC[C@@]2(CC[C@H]3[C@@H]4CCc5cc(O)ccc5[C@H]4CC[C@@]32C)OC1=O (mixture of isomers) needs its inhibition filled in; supply it.
91

Entry C[C@]12CCC(=O)C=C1CC[C@@H]1[C@@H]2CC[C@]2(C)C(=O)CC[C@@H]12 needs its inhibition filled in; supply it.
45

Entry CC(=O)S[C@@H]1CC2=CC(=O)CC[C@]2(C)[C@H]2CC[C@@]3(C)[C@@H](CC[C@@]34CCC(=O)O4)[C@H]12 needs its inhibition filled in; supply it.
57

Entry C[C@]12CC[C@@H]3c4ccc(O)cc4CC[C@H]3[C@@H]1CC[C@]21CCC(=O)O1 needs its inhibition filled in; supply it.
45

Entry C[C@]12CCC(=O)CC1CC[C@@H]1[C@@H]2CC[C@@]2(C)[C@H]1CC[C@@]21CCC(=O)O1 (some centres not stated) needs its inhibition filled in; supply it.
63

Entry CCCC1CC[C@@]2(CC[C@H]3[C@@H]4CCc5cc(O)ccc5[C@H]4CC[C@@]32C)OC1=O (mixture of isomers) needs its inhibition filled in; supply it.
83

Entry CC1(C)CC[C@@]2(CC[C@H]3[C@@H]4CCc5ccccc5[C@H]4CC[C@@]32C)OC1=O needs its inhibition filled in; supply it.
95

Entry CC1(C)CC[C@@]2(CC[C@H]3[C@@H]4CCc5cc(O)ccc5[C@H]4CC[C@@]32C)OC1=O needs its inhibition filled in; supply it.
94

Entry C[C@]12CCC3(CCC(=O)O3)CC1CC[C@@H]1[C@@H]2CC[C@@]2(C)[C@H]1CC[C@@]21CCC(=O)O1 (some centres not stated) needs its inhibition filled in; supply it.
29

Entry C[C@]12CC[C@@H]3c4ccc(O)cc4CC[C@H]3[C@@H]1C[C@@H]1CC(=O)O[C@@H]12 needs its inhibition filled in; supply it.
62

Entry CC1CC(=O)O[C@]2(CC[C@H]3[C@@H]4CCc5cc(O)ccc5[C@H]4CC[C@@]32C)C1 (mixture of isomers) needs its inhibition filled in; supply it.
94
